Listed here: items and their measured CC50 at 48 h.
# assay remarks: Mammalian cell cytotoxicity assay (AlamarBlue, 48 h)
# Format: cell-based
# settings: human, CRL-8155 cells (lymphoblasts); lymphocytic cell line CRL-8155; read-out: Mammalian CC50
# Description: Compounds were tested for cytotoxicity against CRL-8155 cells (human lymphoblasts). Cells were grown in culture with serial dilutions of compounds for 48 h and cytotoxicity was assayed using AlamarBlue (Life Technologies, Carlsbad, California CA, USA).

Worked set:
INSERT INTO assay_data (molecule, property, result) VALUES
  ('O=c1c2ccccc2nc(SCc2cccnc2)n1Cc1ccco1 [Scaffold 3]', 'CC50 at 48 h', '38 µM'),
  ('O=C(CSc1nc2scc(-c3ccccc3)c2c(=O)n1-c1ccccc1)Nc1ccccc1F [Scaffold 16]', 'CC50 at 48 h', '> 100 µM'),
  ('COc1ccc(-n2nc(C(=O)NCC(=O)N3CCCC(C)C3)c3ccccc3c2=O)cc1Cl (stereo not shown) [Scaffold 7]', 'CC50 at 48 h', '> 50 µM'),
  ('COCCN1C(=O)c2ccccc2C(C(=O)Nc2ccc(Oc3ccccc3)cc2)C1c1ccc(F)cc1 (stereo not shown) [Scaffold 14]', 'CC50 at 48 h', '> 100 µM'),
  ('Cc1cc(C)c(NC(=O)c2cc(S(=O)(=O)N3CCOCC3)cn2C)c(C)c1 [Scaffold 13]', 'CC50 at 48 h', '> 100 µM'),
  ('COc1ccc(N2C(=O)CN(Cc3ccccc3)C2=S)cc1Cl [Scaffold 9]', 'CC50 at 48 h', '> 50 µM');

Query :: Please look at this molecule and report its CC50 at 48 h: COc1ccc(-c2c(C#N)c(SCc3ccccc3)nc(C)c2C(=O)Nc2ccccc2)cc1 [Scaffold 17]
Result :: > 100 µM

Query :: Please look at this molecule and report its CC50 at 48 h: COc1ccc(CNC(=O)CN(c2cccc(C)c2C)S(=O)(=O)c2ccccc2)cc1 [Scaffold 12]
Result :: > 100 µM

Query :: Please look at this molecule and report its CC50 at 48 h: Cc1nn2c(NCCCO)c3c(nc2c1-c1cccs1)CCC3 [Scaffold 6]
Result :: > 100 µM

Query :: Please look at this molecule and report its CC50 at 48 h: COc1cccc(C2N(c3ccccc3)N=C(C(C)=O)N2c2ccc(C)c(C)c2)c1OCc1ccccc1 (stereo not shown) [Scaffold 15]
Result :: 33 µM
